# procedure_text: Metabolic stability in mouse liver microsomes assessed as half life measured upto 120 mins
# Type: ADME, Microsome
assay_readout: half-life (min)
Hi! Could you send only the number? It should be in min, unit omitted.

In the examples that follow, each entry is paired with its recorded half-life.
[2H]C([2H])([2H])c1nnn(C)c1-c1cc2c(cc1F)c1ncc(C(C)(C)O)cc1n2[C@H](c1ccccc1)C1CCOCC1 46
[2H]C([2H])([2H])c1nnn(C)c1-c1cc2c(cc1F)c1ncc(C(C)(C)O)cc1n2[C@@H](CCC)c1ncccc1F 53
Cc1nnn(C)c1-c1cnc2c3ccc(C(C)(C)O)cc3n([C@H](c3ccccc3)C3CCOCC3)c2c1 23

Query block: Which half-life reading was recorded for the molecule [2H]C([2H])([2H])c1nnn(C)c1-c1cc2c(cc1F)c1ncc(C(C)(C)O)cc1n2[C@H](c1cc(C)on1)C1CCOCC1 ?
Result block: 31

Query block: Which half-life reading was recorded for the molecule [2H]C([2H])([2H])c1nnn(C)c1-c1cc2c(cn1)c1ncc(C(C)(C)O)cc1n2[C@H](c1ccccc1)C1CCOCC1 ?
Result block: 120
